- TESTED_SYSTEM: Nanoluciferase-BRD9 fusion protein (3×FLAG-NLuc-BRD9) in SYO-1 cells (Homo sapiens, UniProt Q9H8M2)
- Construct: expressed in transfected cells; host or cells: SYO-1
- Sequence (Q9H8M2 whole entry, the tested form may be a part): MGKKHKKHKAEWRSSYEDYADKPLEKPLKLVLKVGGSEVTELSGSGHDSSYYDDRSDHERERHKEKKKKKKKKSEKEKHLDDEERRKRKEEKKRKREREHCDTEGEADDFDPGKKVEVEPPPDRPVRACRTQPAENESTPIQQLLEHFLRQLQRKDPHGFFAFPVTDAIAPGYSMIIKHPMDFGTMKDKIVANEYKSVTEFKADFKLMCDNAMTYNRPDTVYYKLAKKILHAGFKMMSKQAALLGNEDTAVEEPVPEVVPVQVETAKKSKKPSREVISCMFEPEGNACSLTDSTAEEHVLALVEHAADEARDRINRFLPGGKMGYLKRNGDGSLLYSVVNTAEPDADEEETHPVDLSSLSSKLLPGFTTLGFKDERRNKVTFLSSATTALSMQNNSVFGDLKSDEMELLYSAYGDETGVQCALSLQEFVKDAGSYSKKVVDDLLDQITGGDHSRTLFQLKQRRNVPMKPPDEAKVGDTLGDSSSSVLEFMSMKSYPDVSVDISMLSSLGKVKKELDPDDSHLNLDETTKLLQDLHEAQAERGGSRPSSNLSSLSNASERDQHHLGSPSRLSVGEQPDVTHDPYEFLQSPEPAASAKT
- ASSAY_METHOD_TEXT: SYO1 BRD9 NanoLuc Degradation Assay
- Assay type: cell-based
- TEST_SETTINGS: Table 6B; SYO-1 cells expressing 3×FLAG-NLuc-BRD9, 6 hours incubation, 1 μM top dose; read-out: SYO1 BRD9-NanoLuc degradation IC50
METRIC: DC50

Worked cases, answers included:
**Query** Using known records, supply DC50 for COc1cc(-c2cn(C)c(=O)c3cnc(N(C)C)cc23)cc(OC)c1CN1CC(Oc2ccc3c(c2)C(=O)N(C2CCC(=O)NC2=O)C3=O)C1 (centres unmarked)
**Result** < 0.01 µM

**Query** Read off the recorded DC50 for COc1cc(-c2cn(C)c(=O)c3cnc(N(C)C)cc23)cc(OC)c1CN1CCC(C(=O)N2CCC3(CC2)CC(Oc2ccc4c(c2)C(=O)N(C2CCC(=O)NC2=O)C4=O)C3)C(OC)C1 (centres unmarked)
**Result** < 0.01 µM

**Query** # return recorded DC50 for entry COc1cc(-c2cn(C)c(=O)c3cnc(N(C)C)cc23)cc(OC)c1CN1CCC(CN2CCC3(CC2)CN(c2ccc4c(c2)C(=O)N(C2CCC(=O)NC2=O)C4=O)C3)CC1 (centres unmarked)
**Result** < 0.01 µM

**Query** Please look at this molecule and report its DC50: COc1cc(-c2cn(C)c(=O)c3cnc(N(C)C)cc23)cc(OC)c1CN1CC(CCCN2CCN(c3ccc4c(c3)C(=O)N(C3CCC(=O)NC3=O)C4=O)CC2)C1 (centres unmarked)
**Result** 0.01 to 0.1 µM

***
**Query** Assign DC50 to the following record: COc1cc(-c2cn(C)c(=O)c3cnc(N(C)C)cc23)cc(OC)c1CN1CCN(C(C)(C)COc2ccc3c(c2)C(=O)N(C2CCC(=O)NC2=O)C3=O)CC1 (centres unmarked)
**Result** < 0.01 µM
